The origin of these recorded values is patent US12116358B2.

- target_or_system: SETD2(1434-1711) (Homo sapiens)
- Construct: SETD2 (1434-1711) Assay; catalogue N/A
- assay_comment: SETD2 (1434-1711) assay
- Assay type: biochemical
- cond: read-out: SETD2 (1434-1711)
pIC50: −log10 of the molar value.
Reported values of pIC50 for individual entries

* Cc1cccc2cc(C(=O)NC3CCN(C(=O)CCCN)CC3C)[nH]c12 (centres unmarked) [compound 543] | 5.59
* Cc1ccc(F)c2cc(C(=O)Nc3cccc4cccnc34)[nH]c12 | < 4.30
* Cc1cccc2cc(C(=O)NC(C)c3cccc(C(F)(F)F)c3)[nH]c12 (centres unmarked) | < 3.70
* COC(=O)CC(NC(=O)c1cc2cccc(C)c2[nH]1)c1ccc(C)cc1 (centres unmarked) | < 3.70

Please turn your attention to the following entry.
Consider the compound "Cc1cccc2cc(C(=O)Nc3cn4ccnc4cn3)[nH]c12" . State its measured pIC50.
< 3.70

* * *

- target_or_system: SETD2(1434-1711) (Homo sapiens, UniProt Q9BYW2)
- Construct: SETD2 (1434-1711) Assay; catalogue N/A
- Sequence (Q9BYW2 1434-1711): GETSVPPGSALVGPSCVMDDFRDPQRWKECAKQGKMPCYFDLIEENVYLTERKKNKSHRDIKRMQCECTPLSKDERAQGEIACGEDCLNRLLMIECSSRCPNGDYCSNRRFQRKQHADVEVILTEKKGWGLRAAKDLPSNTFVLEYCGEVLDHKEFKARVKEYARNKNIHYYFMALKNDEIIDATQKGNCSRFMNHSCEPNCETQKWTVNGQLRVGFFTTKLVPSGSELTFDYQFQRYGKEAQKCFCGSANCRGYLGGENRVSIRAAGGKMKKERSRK
- assay_comment: SETD2 (1434-1711) assay
- Format: biochemical
- cond: read-out: SETD2 (1434-1711)
test_readout: IC50 (nM)

Solved entries (count: 4):
* Cc1ccc(F)c2cc(C(=O)NC3CCCC(N4CCN5C(=O)CCCC5C4)C3)[nH]c12 (stereo not drawn) [compound 1080] | 500
* Cc1cccc2cc(C(=O)NC3CCN(C(=O)CCCN)CC3C)[nH]c12 (stereo not drawn) [compound 614] | 62700
* COCC1CN(c2cccc(NC(=O)c3cc4c(F)ccc(C)c4[nH]3)c2)CCO1 (stereo not drawn) | 100
* CC(=O)N1C2CCC1CN(c1cccc(NC(=O)c3cc4c(F)ccc(C)c4[nH]3)c1)C2 | 30

(a) Cc1ccc(F)c2cc(C(=O)Nc3cccc(N4CCC(N(C)CCO)C4)c3)[nH]c12 (stereo not drawn)
(b) Cc1ccc(F)c2cc(C(=O)N[C@@H]3CCC[C@H](N4CCC(N(C)C)C4=O)C3)[nH]c12 (stereo partly drawn)
Out of a and b , name the one with the higher IC50. State your choice using its label.
b
(b: 1200 nM, a: 20 nM)

(A) Cc1nc([C@H]2CCC[C@@H](NC(=O)c3cc4c(F)ccc(C)c4[nH]3)C2)no1
(B) Cc1ccc(F)c2cc(C(=O)Nc3ccc4nc(NC5CCNCC5)ncc4c3)[nH]c12
I'm curious whether A or B has the smaller IC50 number. Which is it? State your choice using its label.
B
(B: 40 nM, A: 300 nM)

* * *

- target_or_system: SETD2(1434-1711) (Homo sapiens)
- Construct: SETD2 (1434-1711) Assay; catalogue N/A
- assay_comment: SETD2 (1434-1711) assay
- Type: biochemical
- cond: read-out: SETD2 (1434-1711)
pIC50: −log10 of the molar value.
test_readout: pIC50

(I) COC(=O)CC(NC(=O)c1cc2cccc(C)c2[nH]1)c1ccccc1F (stereo not shown) [compound 556]
(II) CC(=O)N1CCN(C2COCC(NC(=O)c3cc4c(F)ccc(C)c4[nH]3)C2)CC1 (stereo not shown) [compound 986]
Out of I and II , name the one with the higher pIC50. State your choice using its label.
II
(II: 7.22, I: 5.00)

(P) COc1ccnc(C(NC(=O)c2cc3c(F)ccc(C)c3[nH]2)C2CC2)c1C (stereo not shown) [compound 269]
(Q) Cc1ccc(F)c2cc(C(=O)Nc3cccc(N4CCN(C(=O)CO)CC4)c3)[nH]c12 [compound 72]
(R) Cc1ccc(F)c2cc(C(=O)NC3CCCC(N4CCN5C(=O)N(C)CC5C4)C3)[nH]c12 (stereo not shown) [compound 1051]
Given 3 compounds, produce a descending ranking by pIC50. Form entry: labels listed in requested order.
R, Q, P
